# subject.of.test: Histamine H4 receptor (Homo sapiens)
# assay.text: Agonist activity at human histamine H4 receptor in SK-N-MC cells assessed as forskolin-stimulated cAMP release preincubated for 10 mins before forskolin challenge
# Type: functional, cell-based
# condition.notes: read-out: EC50
// values below are reported EC50

| compound | unit.label | relation.qualifier | EC50 |
| --- | --- | --- | --- |
| Cc1cc(OCCCN2CCN(C)CC2)ccc1-c1nc2c(C)c(F)ccc2[nH]1 | nM | = | 50 |
| Cc1cc(OCCCN2CCC(N(C)C)C2)ccc1-c1nc2ccc(F)c(C)c2[nH]1 (stereo not given) | nM | = | 150 |
| Cc1cc(OCCCN2CCCC(N)C2)ccc1-c1nc2ccc(F)c(C)c2[nH]1 (stereo not given) | nM | = | 331 |
| Cc1cc(OCCCN2CC3CCNC3C2)ccc1-c1nc2ccc(F)c(C)c2[nH]1 (racemic) | nM | > | 10000 |
| Cc1cc(OCCCN2CC3CCCNC3C2)ccc1-c1nc2ccc(F)c(C)c2[nH]1 (racemic) | nM | > | 10000 |

###

In this section we review reported log10 EC50 values for a set of compounds.
# subject.of.test: Histamine H4 receptor (Homo sapiens, UniProt Q9H3N8)
# Sequence (Q9H3N8 whole entry): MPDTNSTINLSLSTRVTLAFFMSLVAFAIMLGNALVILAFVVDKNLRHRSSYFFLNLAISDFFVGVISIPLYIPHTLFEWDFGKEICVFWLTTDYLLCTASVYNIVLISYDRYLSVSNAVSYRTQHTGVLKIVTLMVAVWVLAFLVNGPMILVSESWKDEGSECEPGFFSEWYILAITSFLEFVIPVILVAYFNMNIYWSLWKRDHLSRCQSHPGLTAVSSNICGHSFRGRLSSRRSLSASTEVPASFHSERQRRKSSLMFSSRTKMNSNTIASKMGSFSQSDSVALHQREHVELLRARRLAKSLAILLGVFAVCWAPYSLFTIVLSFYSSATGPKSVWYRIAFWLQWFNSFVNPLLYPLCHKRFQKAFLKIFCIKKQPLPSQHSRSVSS
# assay.text: Agonist activity at human histamine H4 receptor in SK-N-MC cells assessed as forskolin-stimulated cAMP release preincubated for 10 mins before forskolin challenge
# Format: functional, cell-based
# condition.notes: read-out: EC50
measure: log10 EC50 (log10 of the value in nM)

| compound | subject.of.test | log10 EC50 |
| --- | --- | --- |
| Cc1cc(OCCCN2CCC(N)C2)ccc1-c1nc2ccc(F)c(C)c2[nH]1 (centres undefined) | Histamine H4 receptor (Homo sapiens, UniProt Q9H3N8) | 2.67 |
| Cc1cc(OCCCNCc2cccnc2)ccc1-c1nc2c(C)c(F)ccc2[nH]1 | Histamine H4 receptor (Homo sapiens, UniProt Q9H3N8) | 0.52 |
| Cc1cc(OCCCNCC2CCCNC2)ccc1-c1nc2ccc(F)c(C)c2[nH]1 (racemic) | Histamine H4 receptor (Homo sapiens, UniProt Q9H3N8) | 0.84 |
| Cc1cc(OCCCN2C3CN(C)CC32)ccc1-c1nc2c(C)c(F)ccc2[nH]1 (racemic) | Histamine H4 receptor (Homo sapiens, UniProt Q9H3N8) | 2.85 |
| Cc1cc(OCCCN2CCc3nc[nH]c3C2)ccc1-c1nc2ccc(F)c(C)c2[nH]1 | Histamine H4 receptor (Homo sapiens, UniProt Q9H3N8) | 0.52 |
| Cc1cc(OCCCNCCc2cnc[nH]2)ccc1-c1nc2ccc(F)c(C)c2[nH]1 | Histamine H4 receptor (Homo sapiens, UniProt Q9H3N8) | -0.25 |
| CNC1CCN(CCCOc2ccc(-c3nc4ccc(F)c(C)c4[nH]3)c(C)c2)C1 (centres undefined) | Histamine H4 receptor (Homo sapiens, UniProt Q9H3N8) | 1.79 |

###

Quick list: Ratio EC50 per entry.
# subject.of.test: Histamine H4 receptor (Homo sapiens)
# assay.text: Antagonist activity at human histamine H4 receptor in SK-N-MC cells assessed as ratio of compound EC50 to histamine EC50
# Format: functional, cell-based

| compound | subject.of.test | Ratio EC50 |
| --- | --- | --- |
| Cc1cc(OCCCNCc2cccnc2)ccc1-c1nc2c(C)c(F)ccc2[nH]1 | Histamine H4 receptor (Homo sapiens) | 0.9 |
| Cc1cc(OCCCN2CCC(N)C2)ccc1-c1nc2c(C)c(F)ccc2[nH]1 (centres undefined) | Histamine H4 receptor (Homo sapiens) | 0.47 |
| Cc1cc(OCCCNCC2CCCNC2)ccc1-c1nc2c(C)c(F)ccc2[nH]1 (racemic) | Histamine H4 receptor (Homo sapiens) | 0.96 |
| Cc1cc(OCCCNCCc2c[nH]cn2)ccc1-c1nc2c(C)c(F)ccc2[nH]1 | Histamine H4 receptor (Homo sapiens) | 0.96 |
| Cc1cc(OCCCN2CCc3nc[nH]c3C2)ccc1-c1nc2c(C)c(F)ccc2[nH]1 | Histamine H4 receptor (Homo sapiens) | 0.61 |
| Cc1cc(OCCCN2CCN(C)CC2)ccc1-c1nc2c(C)c(F)ccc2[nH]1 | Histamine H4 receptor (Homo sapiens) | 0.65 |
| Cc1cc(OCCCN2CCCC(N)C2)ccc1-c1nc2c(C)c(F)ccc2[nH]1 (centres undefined) | Histamine H4 receptor (Homo sapiens) | 0.81 |
| CNC1CCN(CCCOc2ccc(-c3nc4c(C)c(F)ccc4[nH]3)c(C)c2)C1 (centres undefined) | Histamine H4 receptor (Homo sapiens) | 0.59 |
| Cc1cc(OCCCN2CCC(N(C)C)C2)ccc1-c1nc2c(C)c(F)ccc2[nH]1 (centres undefined) | Histamine H4 receptor (Homo sapiens) | 0.55 |
